Recorded values, source paper PMC10397247.

# Lookup of reported interaction score keyed by entry
Molecular target: T1, 4H2717-bH
T1 chain: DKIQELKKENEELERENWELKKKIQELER
Assay: two-hybrid library CCNG1;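 further: natural log of median RNA to DNA barcode read ratio; higher means stronger binding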

| binder | interaction score |
| --- | --- |
| DKIQELEKKNEELEREIWELEKKIQELKR [4H2438-bH] | 0.187 |
| DKIQELEKENEELERKIWELKKKNQELER [4H2223-bH] | 0.113 |
| DKIQELEKKNEELERKIWELKKEIQELER [4H2473-bH] | -0.241 |
| DKIQELEKKNEELKREIWELEKKNQELER [4H2503-bH] | -0.106 |
| DKIQELKKENEELERENWELKKKIQELER [4H2717-bH] | 1.16 |
| DKIQELKKENEELEREIWELEKENQELKR [4H2692-bH] | -0.125 |
| DKIQELEKEIEELKRENWELKKKNQELER [4H2143-bH] | -0.549 |
